- Condition description: 288.15 K; 10000 kPa; Liquid; vibrating tube
Observable: mass density (kg/m3)
Kindly answer with a numeric value in kg/m3, unit omitted.

Solved cases below.
Query string: Recorded mass density of CCCCn1cc[n+](C)c1.F[B-](F)(F)F [1-butyl-3-methylimidazolium tetrafluoroborate] , please.
Result string: 1213.34

Query string: Try CCCCCCn1cc[n+](C)c1.F[B-](F)(F)F [1-hexyl-3-methylimidazolium tetrafluoroborate] next.
Result string: 1157.11

Query string: Also, CCn1cc[n+](C)c1.F[B-](F)(F)F [1-ethyl-3-methylimidazolium tetrafluoroborate] please.
Result string: 1297.45

Turning to the following molecule.
Query string: // returns reported mass density for input CCCCCCCC[n+]1ccn(C)c1.F[B-](F)(F)F [1-methyl-3-octylimidazolium tetrafluoroborate]
Result string: 1116.03

----------
- Condition description: 323.15 K; 14000 kPa; Liquid; vibrating tube
Observable: mass density (kg/m3)
Kindly answer with a numeric value in kg/m3, unit omitted.

Query string: What value of measured mass density is listed for CCCCn1cc[n+](C)c1.F[B-](F)(F)F [1-butyl-3-methylimidazolium tetrafluoroborate] ?
Result string: 1190.78

Query string: And CCCCCCCC[n+]1ccn(C)c1.F[B-](F)(F)F [1-methyl-3-octylimidazolium tetrafluoroborate] ?
Result string: 1094.9

Query string: Check CCn1cc[n+](C)c1.F[B-](F)(F)F [1-ethyl-3-methylimidazolium tetrafluoroborate] too.
Result string: 1273.08

As a next step, examine the molecule that follows.
Query string: mass density for CCCCCCn1cc[n+](C)c1.F[B-](F)(F)F [1-hexyl-3-methylimidazolium tetrafluoroborate] ?
Result string: 1135.46

----------
- Condition description: 303.15 K; 4000 kPa; Liquid; vibrating tube
± gives the expanded uncertainty stated by the source.
Observable: mass density

Sample records with mass density:
Query string: What does the record list as mass density for CCCCCCCC[n+]1ccn(C)c1.F[B-](F)(F)F [1-methyl-3-octylimidazolium tetrafluoroborate] ?
Result string: 1102.9 ± 0.94 kg/m3

Query string: Try this compound next: CCn1cc[n+](C)c1.F[B-](F)(F)F [1-ethyl-3-methylimidazolium tetrafluoroborate]
Result string: 1283.44 ± 1.6 kg/m3

Query string: Then CCCCCCn1cc[n+](C)c1.F[B-](F)(F)F [1-hexyl-3-methylimidazolium tetrafluoroborate] ?
Result string: 1143.92 ± 0.96 kg/m3

Then this compound:
Query string: State the recorded mass density for this entry: CCCCn1cc[n+](C)c1.F[B-](F)(F)F [1-butyl-3-methylimidazolium tetrafluoroborate]
Result string: 1199.92 ± 0.98 kg/m3

----------
- Condition description: 323.15 K; 6000 kPa; Liquid; vibrating tube
Observable: mass density (kg/m3)
Quick note: give the figure in kg/m3, leave out the unit.

Some entries whose results are on file:
Query string: What value of mass density has been recorded for this entry: CCn1cc[n+](C)c1.F[B-](F)(F)F [1-ethyl-3-methylimidazolium tetrafluoroborate]
Result string: 1269.45

Query string: What do you get for CCCCn1cc[n+](C)c1.F[B-](F)(F)F [1-butyl-3-methylimidazolium tetrafluoroborate] ?
Result string: 1186.94

Query string: Next compound: CCCCCCCC[n+]1ccn(C)c1.F[B-](F)(F)F [1-methyl-3-octylimidazolium tetrafluoroborate]
Result string: 1090.68

Next:
Query string: I'd like to know its mass density. The compound in question is CCCCCCn1cc[n+](C)c1.F[B-](F)(F)F [1-hexyl-3-methylimidazolium tetrafluoroborate]
Result string: 1131.4

----------
- Condition description: 313.15 K; 20000 kPa; Liquid; vibrating tube
Observable: mass density (kg/m3)
Number only, in kg/m3; omit the unit.

Query string: Give its mass density value. Item: CCCCn1cc[n+](C)c1.F[B-](F)(F)F [1-butyl-3-methylimidazolium tetrafluoroborate]
Result string: 1200.34

Query string: Also CCCCCCCC[n+]1ccn(C)c1.F[B-](F)(F)F [1-methyl-3-octylimidazolium tetrafluoroborate] ?
Result string: 1104.39

Query string: Next entry: CCCCCCn1cc[n+](C)c1.F[B-](F)(F)F [1-hexyl-3-methylimidazolium tetrafluoroborate]
Result string: 1144.98

Now turn to the next compound.
Query string: Which value of mass density has been reported for CCn1cc[n+](C)c1.F[B-](F)(F)F [1-ethyl-3-methylimidazolium tetrafluoroborate] in the records?
Result string: 1283.04

----------
- Condition description: 318.15 K; 12000 kPa; Liquid; vibrating tube
± gives the expanded uncertainty stated by the source.
Observable: mass density

Below are worked cases with known answers.
Query string: // returns reported mass density for input CCCCCCn1cc[n+](C)c1.F[B-](F)(F)F [1-hexyl-3-methylimidazolium tetrafluoroborate]
Result string: 1137.78 ± 0.95 kg/m3

Query string: Cool, now CCCCn1cc[n+](C)c1.F[B-](F)(F)F [1-butyl-3-methylimidazolium tetrafluoroborate]
Result string: 1193.27 ± 0.97 kg/m3

Query string: And the next one, CCn1cc[n+](C)c1.F[B-](F)(F)F [1-ethyl-3-methylimidazolium tetrafluoroborate] ?
Result string: 1275.87 ± 1.6 kg/m3

# evaluate next
Query string: Form field: reported mass density of CCCCCCCC[n+]1ccn(C)c1.F[B-](F)(F)F [1-methyl-3-octylimidazolium tetrafluoroborate]
Result string: 1097.15 ± 0.93 kg/m3

----------
# reported mass density; entries follow
- Condition description: 313.15 K; 60000 kPa; Liquid; vibrating tube
The answer is to be given in kg/m3; state only the numeric part.

Query string: Any idea what mass density was measured for CCCCn1cc[n+](C)c1.F[B-](F)(F)F [1-butyl-3-methylimidazolium tetrafluoroborate] ?
Result string: 1217.34

Query string: Entry CCCCCCn1cc[n+](C)c1.F[B-](F)(F)F [1-hexyl-3-methylimidazolium tetrafluoroborate] please
Result string: 1162.62

Query string: Now give it for CCn1cc[n+](C)c1.F[B-](F)(F)F [1-ethyl-3-methylimidazolium tetrafluoroborate] too.
Result string: 1299.37

Let's switch to this molecule now.
Query string: Consider the molecule shown here: CCCCCCCC[n+]1ccn(C)c1.F[B-](F)(F)F [1-methyl-3-octylimidazolium tetrafluoroborate] What is its recorded mass density?
Result string: 1122.52

----------
- Condition description: 298.15 K; 8000 kPa; Liquid; vibrating tube
Attribute: mass density
Give the quantity in kg/m3, number only.

Query string: Item CCCCn1cc[n+](C)c1.F[B-](F)(F)F [1-butyl-3-methylimidazolium tetrafluoroborate] has what recorded mass density?
Result string: 1205.3

Continuing:
Query string: Fill blank: measured mass density of the molecule CCCCCCCC[n+]1ccn(C)c1.F[B-](F)(F)F [1-methyl-3-octylimidazolium tetrafluoroborate] is ____.
Result string: 1108.29

Query string: Now this one: CCn1cc[n+](C)c1.F[B-](F)(F)F [1-ethyl-3-methylimidazolium tetrafluoroborate]
Result string: 1289.02

Query string: CCCCCCn1cc[n+](C)c1.F[B-](F)(F)F [1-hexyl-3-methylimidazolium tetrafluoroborate] , same question.
Result string: 1149.29

----------
mass density overview
- Condition description: 283.15 K; 40000 kPa; Liquid; vibrating tube
± gives the expanded uncertainty stated by the source.

Please review the following examples before continuing.
Query string: Returns the measured mass density for the input compound. Input: CCCCCCCC[n+]1ccn(C)c1.F[B-](F)(F)F [1-methyl-3-octylimidazolium tetrafluoroborate]
Result string: 1132.79 ± 0.94 kg/m3

Query string: // repeat for CCCCCCn1cc[n+](C)c1.F[B-](F)(F)F [1-hexyl-3-methylimidazolium tetrafluoroborate] and report
Result string: 1173.6 ± 0.96 kg/m3

Query string: Repeat with CCCCn1cc[n+](C)c1.F[B-](F)(F)F [1-butyl-3-methylimidazolium tetrafluoroborate]
Result string: 1229.49 ± 0.99 kg/m3

More entries:
Query string: Entry under review: CCn1cc[n+](C)c1.F[B-](F)(F)F [1-ethyl-3-methylimidazolium tetrafluoroborate] . Reported mass density?
Result string: 1313.27 ± 1.7 kg/m3

----------
- Condition description: 283.15 K; 6000 kPa; Liquid; vibrating tube
Numbers after ± are expanded uncertainties.
# reported mass density; entries follow
Be sure to follow the number with its unit.

Query string: Returns the measured mass density for the input compound. Input: CCCCn1cc[n+](C)c1.F[B-](F)(F)F [1-butyl-3-methylimidazolium tetrafluoroborate]
Result string: 1215.13 ± 0.99 kg/m3

Others:
Query string: For the compound CCn1cc[n+](C)c1.F[B-](F)(F)F [1-ethyl-3-methylimidazolium tetrafluoroborate] , what mass density is on record?
Result string: 1299.52 ± 1.6 kg/m3

Query string: // same read-out, input: CCCCCCn1cc[n+](C)c1.F[B-](F)(F)F [1-hexyl-3-methylimidazolium tetrafluoroborate]
Result string: 1158.69 ± 0.98 kg/m3

Query string: Another compound to look at: CCCCCCCC[n+]1ccn(C)c1.F[B-](F)(F)F [1-methyl-3-octylimidazolium tetrafluoroborate]
Result string: 1117.44 ± 0.95 kg/m3
